Reference source for all entries: patent US20240415914A1

Assay: Stability of cannabinoid and Vitamin E components of Beverage 1 (AB White) stored at 8° C. and 21-25° C., LCMSMS over 570 days
Format: physicochemical
Settings: beverage stored at 8° C., day 10
// boundary case: Stability in AB White, 8° C. (content by LCMSMS) equal to 2 µg/mL maps to false; strictly smaller maps to true

{"compound": "C=C(C)[C@@H]1CCC(C)=C[C@H]1c1c(O)cc(CCC)cc1O", "category label": "true"}
{"compound": "C=C(C)[C@@H]1CCC(C)=C[C@H]1c1c(O)cc(CCCCC)c(C(=O)O)c1O", "category label": "true"}
{"compound": "CCCCCc1cc2c(c(O)c1C(=O)O)[C@@H]1C=C(C)CC[C@H]1C(C)(C)O2 [D9 THCA, delta-9-tetrahydrocannabinolic acid]", "category label": "true"}
{"compound": "CCCCCc1cc(O)c2c(c1)OC(C)(C)c1ccc(C)cc1-2", "category label": "false"}
{"compound": "CCCCCc1cc(O)c(C/C=C(\\C)CCC=C(C)C)c(O)c1", "category label": "false"}
{"compound": "C=C(C)[C@@H]1CCC(C)=C[C@H]1c1c(O)cc(CCCCC)cc1O [CBD, cannabidiol, reference compound]", "category label": "false"}
{"compound": "CCCCCc1cc(O)c2c(c1)OC1(C)CCC3C1C2C3(C)C (stereo not shown)", "category label": "true"}
{"compound": "CCCc1cc(O)c2c(c1)OC(C)(C)[C@@H]1CCC(C)=C[C@@H]21 [THCV, delta-9-tetrahydrocannabivarin]", "category label": "false"}
{"compound": "CCCCCc1cc(O)c2c(c1)OC(C)(CCC=C(C)C)C=C2 (stereo not shown)", "category label": "true"}
{"compound": "CCCCCc1cc(O)c2c(c1)OC(C)(C)[C@@H]1CCC(C)=C[C@@H]21 [D9 THC, delta-9-tetrahydrocannabinol, reference compound]", "category label": "false"}
